# MEASURED_TARGET: EGFR (Homo sapiens, UniProt P00533, L858R/T790M)
# Construct: endogenous in cells; host or cells: H1975
# Sequence (P00533 25-1210 T790M/L858R): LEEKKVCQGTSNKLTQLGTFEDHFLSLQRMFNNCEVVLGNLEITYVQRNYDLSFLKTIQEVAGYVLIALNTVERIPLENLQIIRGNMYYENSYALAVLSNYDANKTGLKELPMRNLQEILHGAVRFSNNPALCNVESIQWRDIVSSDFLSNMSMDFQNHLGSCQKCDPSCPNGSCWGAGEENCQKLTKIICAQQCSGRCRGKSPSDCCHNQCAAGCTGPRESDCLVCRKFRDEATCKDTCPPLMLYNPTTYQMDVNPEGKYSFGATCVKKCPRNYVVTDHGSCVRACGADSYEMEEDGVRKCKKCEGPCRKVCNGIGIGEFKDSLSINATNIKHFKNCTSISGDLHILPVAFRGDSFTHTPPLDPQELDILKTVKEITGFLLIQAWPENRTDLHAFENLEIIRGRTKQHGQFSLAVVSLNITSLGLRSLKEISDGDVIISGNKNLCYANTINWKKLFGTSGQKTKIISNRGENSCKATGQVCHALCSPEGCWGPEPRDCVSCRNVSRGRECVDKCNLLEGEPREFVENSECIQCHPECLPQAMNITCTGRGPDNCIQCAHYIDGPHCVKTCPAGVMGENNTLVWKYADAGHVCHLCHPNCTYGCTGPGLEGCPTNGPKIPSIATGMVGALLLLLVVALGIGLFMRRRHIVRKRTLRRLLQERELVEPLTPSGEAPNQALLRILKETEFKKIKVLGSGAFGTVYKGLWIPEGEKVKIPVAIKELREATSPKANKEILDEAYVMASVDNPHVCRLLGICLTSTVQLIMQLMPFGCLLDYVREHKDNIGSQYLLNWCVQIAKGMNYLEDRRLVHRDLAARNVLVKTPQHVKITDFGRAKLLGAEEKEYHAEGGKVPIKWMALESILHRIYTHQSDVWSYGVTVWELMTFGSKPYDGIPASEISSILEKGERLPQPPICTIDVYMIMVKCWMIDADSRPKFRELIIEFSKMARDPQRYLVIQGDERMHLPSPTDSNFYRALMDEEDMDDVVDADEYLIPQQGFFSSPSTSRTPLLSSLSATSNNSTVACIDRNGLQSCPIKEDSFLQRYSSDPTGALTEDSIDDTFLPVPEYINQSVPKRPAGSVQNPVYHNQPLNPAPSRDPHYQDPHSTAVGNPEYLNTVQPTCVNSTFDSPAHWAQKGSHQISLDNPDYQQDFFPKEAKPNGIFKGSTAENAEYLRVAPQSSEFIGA
# PROTOCOL_TEXT: Cell Degradation 1: EGFR degradation in H1975 cells, HTRF assay
# Format: cell-based
# EXPERIMENTAL_CONDITIONS: 16 h treatment, EGFR degradation by HTRF
# Protocol: After 16 h treatment, add 100 μl 1×lysis buffer to each well; seal the plate and incubate 1 hour at room temperature on a plate shaker; Once the cells are lysed, 16 μL of cell lysate are transferred to a PE 384-well HTRF detection plate; 4 μL of pre-mixed HTRF antibodies are added to each well; Cover the plate with a plate sealer, spin 1000 rpm for 1 min, Incubate overnight at room temperature; Read on BMG PheraStar with HTRF protocol (337 nm-665 nm-620 nm). […]
METRIC: log10 of DC50 (log10 of the value in nM)

MOLECULE	MEASURED_TARGET	READOUT_VALUE
CN(CCC1CCN(c2ccc(C3CCC(=O)NC3=O)c(F)c2)CC1)C1CCN(c2ccc(Nc3ncc(Cl)c(Nc4cccc5c4N(S(C)(=O)=O)CC5)n3)c3c2CCO3)CC1 (centres unmarked)	EGFR (Homo sapiens, UniProt P00533, L858R/T790M)	1.37
CS(=O)(=O)N1CCc2cccc(Nc3nc(Nc4ccc(N5CCC(N6CCN(C(=O)[C@@H]7CCN(c8ccc9c(c8)C(=O)N(C8CCC(=O)NC8=O)C9=O)C7)CC6)CC5)c(F)c4)ncc3Cl)c21 (some centres unmarked)	EGFR (Homo sapiens, UniProt P00533, L858R/T790M)	0.51
CS(=O)(=O)N1CCc2cccc(Nc3nc(Nc4ccc(N5CCC(N6CCN(CCc7ccc(C8CCC(=O)NC8=O)c(F)c7)CC6)CC5)c(F)c4)nc4[nH]ccc34)c21 (centres unmarked)	EGFR (Homo sapiens, UniProt P00533, L858R/T790M)	0.98
CS(=O)(=O)N1CCc2cccc(Nc3nc(Nc4ccc(N5CCC(N6CCN(CC7CCN(c8ccc9c(c8)C(=O)N(C8CCC(=O)NC8=O)C9=O)CC7)CC6)CC5)c(F)c4)nc4[nH]ccc34)c21 (centres unmarked)	EGFR (Homo sapiens, UniProt P00533, L858R/T790M)	1.53
CS(=O)(=O)N1CCc2cccc(Nc3nc(Nc4ccc(N5CCC(N6CCN(CCc7ccc(C8CCC(=O)NC8=O)cc7)CC6)CC5)c(F)c4)nc4[nH]ccc34)c21 (centres unmarked)	EGFR (Homo sapiens, UniProt P00533, L858R/T790M)	1.00

* * *

Some compounds, each annotated with its measured DC50.
# MEASURED_TARGET: EGFR LTC (Homo sapiens, UniProt P00533, C797S/L858R/T790M)
# Construct: expressed in transfected cells; host or cells: BaF3
# Sequence (P00533 25-1210 T790M/C797S/L858R): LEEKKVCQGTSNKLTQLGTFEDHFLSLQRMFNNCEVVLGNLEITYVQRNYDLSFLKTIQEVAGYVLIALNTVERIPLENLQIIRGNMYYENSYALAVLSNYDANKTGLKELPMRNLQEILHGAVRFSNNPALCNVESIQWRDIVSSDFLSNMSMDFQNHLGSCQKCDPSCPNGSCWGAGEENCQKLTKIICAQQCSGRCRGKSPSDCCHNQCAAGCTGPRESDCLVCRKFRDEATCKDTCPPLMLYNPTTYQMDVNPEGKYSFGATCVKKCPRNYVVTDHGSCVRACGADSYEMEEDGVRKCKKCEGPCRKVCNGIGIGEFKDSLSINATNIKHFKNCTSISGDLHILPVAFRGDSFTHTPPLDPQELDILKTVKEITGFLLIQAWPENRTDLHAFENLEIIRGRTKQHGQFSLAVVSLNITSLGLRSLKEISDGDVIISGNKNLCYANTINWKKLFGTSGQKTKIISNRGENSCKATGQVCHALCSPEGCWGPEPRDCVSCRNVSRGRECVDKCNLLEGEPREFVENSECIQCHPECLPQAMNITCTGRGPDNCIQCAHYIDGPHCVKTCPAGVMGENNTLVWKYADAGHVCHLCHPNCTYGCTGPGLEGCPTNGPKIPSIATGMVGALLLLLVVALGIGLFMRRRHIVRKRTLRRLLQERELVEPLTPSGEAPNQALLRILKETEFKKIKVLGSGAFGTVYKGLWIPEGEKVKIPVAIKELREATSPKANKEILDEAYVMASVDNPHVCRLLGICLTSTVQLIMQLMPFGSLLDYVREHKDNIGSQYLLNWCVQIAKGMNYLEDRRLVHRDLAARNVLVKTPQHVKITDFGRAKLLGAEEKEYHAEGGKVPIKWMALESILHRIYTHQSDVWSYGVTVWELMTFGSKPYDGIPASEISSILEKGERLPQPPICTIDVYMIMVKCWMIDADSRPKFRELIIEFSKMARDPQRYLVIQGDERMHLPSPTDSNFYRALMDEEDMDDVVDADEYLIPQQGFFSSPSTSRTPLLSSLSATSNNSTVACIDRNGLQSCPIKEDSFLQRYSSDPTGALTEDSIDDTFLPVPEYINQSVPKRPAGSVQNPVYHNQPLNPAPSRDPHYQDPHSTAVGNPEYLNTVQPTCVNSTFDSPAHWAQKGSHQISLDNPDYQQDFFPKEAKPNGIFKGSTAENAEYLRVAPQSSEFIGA
# PROTOCOL_TEXT: Cell Degradation 3: EGFR degradation in BaF3 cells (LTC), HTRF assay
# Format: cell-based
# EXPERIMENTAL_CONDITIONS: 16 h treatment, EGFR degradation by HTRF
METRIC: DC50

COMPOUND	READOUT_VALUE
CCc1cc(Nc2ncc(Br)c(Nc3ccc(C(F)(F)F)c4c3N(S(C)(=O)=O)CC4)n2)c(OC)cc1N1CCC(N2CCN(C(=O)[C@@H]3CCN(c4cc(F)c([C@H]5CCC(=O)NC5=O)c(F)c4)C3)CC2)CC1 [Example 197]	83 nM
CS(=O)(=O)N1CCc2cccc(Nc3nc(Nc4ccc(N5CCC(N6CCN(C(=O)[C@H]7CCN(c8ccc9c(c8)C(=O)N(C8CCC(=O)NC8=O)C9=O)C7)CC6)CC5)c(F)c4)ncc3Cl)c21 (some centres unmarked) [Example 82]	15.1 nM
COc1cc(N2CCC(N3CCN(CCC4CCN(c5ccc6c(c5)C(=O)N(C5CCC(=O)NC5=O)C6=O)CC4)CC3)CC2)c(C)cc1Nc1ncc(Br)c(Nc2cccc3c2N(S(C)(=O)=O)CC3)n1 (centres unmarked) [Example 91]	39.9 nM
COc1cc(N2CCC(N3CCN(CC4CN(c5ccc6c(c5)CN(C5CCC(=O)NC5=O)C6=O)C4)CC3)CC2)ccc1Nc1ncc(Cl)c(Nc2cccc3c2N(S(C)(=O)=O)CC3)n1 (centres unmarked) [Example 85]	2.8 nM
COc1cc(N2CCC(N3CCN(CC4CN(c5ccc6c(c5)C(=O)N(C5CCC(=O)NC5=O)C6=O)C4)CC3)CC2)c(C)cc1Nc1ncc(Br)c(Nc2cccc3c2N(S(C)(=O)=O)CC3)n1 (centres unmarked) [Example 151]	17 nM
COc1cc(N2CCC(N3CCN(CCNc4cccc5c4CN(C4CCC(=O)NC4=O)C5=O)CC3)CC2)c(C)cc1Nc1ncc(Br)c(Nc2cccc3c2N(S(C)(=O)=O)CC3)n1 (centres unmarked) [Example 173]	27 nM
CCc1cc(Nc2ncc(Br)c(Nc3ccc(CC)c4c3N(S(C)(=O)=O)CC4)n2)c(OC)cc1N1CCC(N2CCN(C(=O)[C@@H]3CCN(c4cc(F)c([C@H]5CCC(=O)NC5=O)c(F)c4)C3)CC2)CC1 [Example 198]	34 nM
CS(=O)(=O)N1CCc2cccc(Nc3nc(Nc4ccc(N5CCC(N6CCN(C(=O)[C@@H]7CCN(c8ccc9c(c8)C(=O)N(C8CCC(=O)NC8=O)C9=O)C7)CC6)CC5)c(F)c4)ncc3Cl)c21 (some centres unmarked) [Example 83]	14.6 nM
CS(=O)(=O)N1CCc2cccc(Nc3nc(Nc4ccc(N5CCC(N6CCN(CCC7CCN(c8ccc(C9CCC(=O)NC9=O)c(F)c8)CC7)CC6)CC5)c(F)c4)ncc3Cl)c21 (centres unmarked) [Example 80]	12.2 nM
COc1cc(N2CCC(N3CCN(C[C@@H]4CCN(c5ccc6c(c5)C(=O)N(C5CCC(=O)NC5=O)C6=O)C4)CC3)CC2)c(C)cc1Nc1ncc(Br)c(Nc2cccc3c2N(S(C)(=O)=O)CC3)n1 (some centres unmarked) [Example 164]	60 nM
COc1cc(N2CCC(N3CCN(CCc4ccc(C5CCC(=O)NC5=O)cc4)CC3)CC2)c(C)cc1Nc1ncc(Br)c(Nc2cccc3c2N(S(C)(=O)=O)CC3)n1 (centres unmarked) [Example 39]	157 nM
COc1cc(N2CCC(N3CCN(CC4CN(c5ccc(C6CCC(=O)NC6=O)c(F)c5)C4)CC3)CC2)c(C)cc1Nc1ncc(Br)c(Nc2cccc3c2N(S(C)(=O)=O)CC3)n1 (centres unmarked) [Example 169]	57 nM
COc1cc(N2CCC(N3CCN(CCC4CCN(c5ccc(C6CCC(=O)NC6=O)cc5)CC4)CC3)CC2)ccc1Nc1ncc(Cl)c(Nc2cccc3c2N(S(C)(=O)=O)CC3)n1 (centres unmarked) [Example 35]	203 nM
COc1cc(N2CCC(N3CCN(CCc4cc(F)c(C5CCC(=O)NC5=O)c(F)c4)CC3)CC2)c(C)cc1Nc1nc(Nc2cccc3c2N(S(C)(=O)=O)CC3)c2cc[nH]c2n1 (centres unmarked) [Example 163]	40 nM

* * *

# MEASURED_TARGET: EGFR (Homo sapiens, UniProt P00533, L858R/T790M)
# Construct: endogenous in cells; host or cells: H1975
# PROTOCOL_TEXT: Cell Degradation 1: EGFR degradation in H1975 cells, HTRF assay
# Type: cell-based
# EXPERIMENTAL_CONDITIONS: 16 h treatment, EGFR degradation by HTRF

COMPOUND	MEASURED_TARGET	DC50, nM
COc1cc(N2CCC(N3CCN(CCC4CCN(c5ccc(C6CCC(=O)NC6=O)cc5)CC4)CC3)CC2)c(C)cc1Nc1ncc(Br)c(Nc2cccc3c2N(S(C)(=O)=O)CC3)n1 (stereo not drawn) [Example 41]	EGFR (Homo sapiens, UniProt P00533, L858R/T790M)	20.7
CN(CCN1CCN(C2CCN(c3ccc(Nc4nc(Nc5cccc6c5N(S(C)(=O)=O)CC6)c5cc[nH]c5n4)cc3F)CC2)CC1)c1cccc(C2CCC(=O)NC2=O)c1 (stereo not drawn) [Example 6]	EGFR (Homo sapiens, UniProt P00533, L858R/T790M)	7.4
COc1cc(N2CCC(N3CCN(CCc4ccc(C5CCC(=O)NC5=O)cc4)CC3)CC2)c(C)cc1Nc1ncc(Br)c(Nc2cccc3c2N(S(C)(=O)=O)CC3)n1 (stereo not drawn) [Example 39]	EGFR (Homo sapiens, UniProt P00533, L858R/T790M)	12.1
COc1cc(N2CCC(N3CCN(CCC4CCN(c5ccc6c(c5)C(=O)N(C5CCC(=O)NC5=O)C6=O)CC4)CC3)CC2)ccc1Nc1ncc(Cl)c(Nc2cccc3c2N(S(C)(=O)=O)CC3)n1 (stereo not drawn) [Example 37]	EGFR (Homo sapiens, UniProt P00533, L858R/T790M)	3.8
CS(=O)(=O)N1CCc2cccc(Nc3nc(Nc4ccc(N5CCC(N6CCN(CCC7CCN(c8ccc9c(c8)C(=O)N(C8CCC(=O)NC8=O)C9=O)CC7)CC6)CC5)c(F)c4)nc4[nH]ccc34)c21 (stereo not drawn) [Example 17]	EGFR (Homo sapiens, UniProt P00533, L858R/T790M)	9.6
COc1cc(N2CCN(CCC3CCN(c4ccc(C5CCC(=O)NC5=O)cc4)CC3)CC2)ccc1Nc1ncc(Cl)c(Nc2cccc3c2N(S(C)(=O)=O)CC3)n1 (stereo not drawn) [Example 56]	EGFR (Homo sapiens, UniProt P00533, L858R/T790M)	13.5
CS(=O)(=O)N1CCc2cccc(Nc3nc(Nc4ccc(N5CCC(N6CCN(C(=O)[C@H]7CCN(c8ccc9c(c8)C(=O)N(C8CCC(=O)NC8=O)C9=O)C7)CC6)CC5)c(F)c4)ncc3Cl)c21 (stereo partly drawn) [Example 82]	EGFR (Homo sapiens, UniProt P00533, L858R/T790M)	3.2
CS(=O)(=O)N1CCc2cccc(Nc3nc(Nc4ccc(N5CCC(N6CCN(CC7CN(c8ccc9c(c8)CN(C8CCC(=O)NC8=O)C9=O)C7)CC6)CC5)c(F)c4)nc4[nH]ccc34)c21 (stereo not drawn) [Example 59]	EGFR (Homo sapiens, UniProt P00533, L858R/T790M)	2.7
CN(CCCC1CN(c2ccc3c(c2)C(=O)N(C2CCC(=O)NC2=O)C3=O)C1)C1CCN(c2ccc(Nc3ncc(Cl)c(Nc4cccc5c4N(S(C)(=O)=O)CC5)n3)c3c2CCO3)CC1 (stereo not drawn) [Example 50]	EGFR (Homo sapiens, UniProt P00533, L858R/T790M)	7.5
CS(=O)(=O)N1CCc2cccc(Nc3nc(Nc4ccc(N5CCC(N6CCN(C(=O)[C@H]7CCN(c8ccc9c(c8)C(=O)N(C8CCC(=O)NC8=O)C9=O)C7)CC6)CC5)c(F)c4)nc4[nH]ccc34)c21 (stereo partly drawn) [Example 63]	EGFR (Homo sapiens, UniProt P00533, L858R/T790M)	3.9
CN(CCC1CCN(c2ccc3c(c2)C(=O)N(C2CCC(=O)NC2=O)C3=O)CC1)C1CCN(c2ccc(Nc3ncc(Cl)c(Nc4cccc5c4N(S(C)(=O)=O)CC5)n3)c3c2CCO3)CC1 (stereo not drawn) [Example 47]	EGFR (Homo sapiens, UniProt P00533, L858R/T790M)	21.4
CS(=O)(=O)N1CCc2cccc(Nc3nc(Nc4ccc(N5CCN(CCC6CCN(c7ccc(C8CCC(=O)NC8=O)cc7)CC6)CC5)c(F)c4)nc4[nH]ccc34)c21 (stereo not drawn) [Example 27]	EGFR (Homo sapiens, UniProt P00533, L858R/T790M)	10.6
COc1cc(N2CCC(N3CCN(C[C@@H]4CCN(c5ccc6c(c5)CN(C5CCC(=O)NC5=O)C6=O)C4)CC3)CC2)c(C)cc1Nc1ncc(Br)c(Nc2cccc3c2N(S(C)(=O)=O)CC3)n1 (stereo partly drawn) [Example 154]	EGFR (Homo sapiens, UniProt P00533, L858R/T790M)	16
CS(=O)(=O)N1CCc2cccc(Nc3nc(Nc4ccc(N5CCC(N6CCN(CC[C@H]7CCN(c8ccc(C9CCC(=O)NC9=O)cc8)C7)CC6)CC5)c(F)c4)nc4[nH]ccc34)c21 (stereo partly drawn) [Example 13]	EGFR (Homo sapiens, UniProt P00533, L858R/T790M)	11.1
CS(=O)(=O)N1CCc2cccc(Nc3nc(Nc4ccc(N5CCC(N6CCN(CCCOc7ccc(OC8CCC(=O)NC8=O)cc7)CC6)CC5)c(F)c4)nc4[nH]ccc34)c21 (stereo not drawn) [Example 4]	EGFR (Homo sapiens, UniProt P00533, L858R/T790M)	15.5
COc1cc(Nc2nc(Nc3cccc4c3N(S(C)(=O)=O)CC4)c3cc[nH]c3n2)ccc1N1CCC(N2CCN(C(=O)[C@@H]3CCN(c4ccc5c(c4)C(=O)N(C4CCC(=O)NC4=O)C5=O)C3)CC2)CC1 (stereo partly drawn) [Example 75]	EGFR (Homo sapiens, UniProt P00533, L858R/T790M)	3.9
CS(=O)(=O)N1CCc2cccc(Nc3nc(Nc4ccc(N5CCC(N6CCN(CCC7CCN(c8ccc(C9CCC(=O)NC9=O)c(C#N)c8)CC7)CC6)CC5)c(F)c4)nc4[nH]ccc34)c21 (stereo not drawn) [Example 10]	EGFR (Homo sapiens, UniProt P00533, L858R/T790M)	9.3
COc1cc(N2CCC(N3CCN(CCc4ccc(C5CCC(=O)NC5=O)cc4)CC3)CC2)ccc1Nc1nc(Nc2cccc3c2N(S(C)(=O)=O)CC3)c2cc[nH]c2n1 (stereo not drawn) [Example 21]	EGFR (Homo sapiens, UniProt P00533, L858R/T790M)	38.4
